target.desc: T1, his-tagged human PVRIG (h-PVRIG-his) recombinant protein (human, UniProt Q6DKI7 41-171, limits assumed)
T1 construct: bought from Acrobiosystems; also called Human PVRIG-his; human PVRIG recombinant protein; not shown: his tag
T1 sequence (looked up): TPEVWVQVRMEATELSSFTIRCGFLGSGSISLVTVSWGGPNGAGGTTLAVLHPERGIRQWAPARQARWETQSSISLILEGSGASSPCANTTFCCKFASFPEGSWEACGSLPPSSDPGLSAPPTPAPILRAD
protocol.details: ELISA, coated antigen
Experimental: ELISA assay was used to detect binding properties of anti-PVRIG antibodies. […] After the antibody was added, the activity of the binding of the antibody to the antigen was detected by adding a secondary antibody (HRP-conjugated anti-primary antibody Fc antibody) and HRP substrate TMIB. A human, cynomolgus monkey, or mouse PVRIG protein (at a concentration of 1 μg/mL) was coated on a 96-well microplate at 100 μL per well, and incubated overnight at 4° C. […]
observed.property: EC50 (nM)
State the answer as a number, implicitly in nM.

[[record]]
binder = "anti-PVRIG antibody 30 (antibody, human IgG4 S228P, F234A L235A, V domains shown, no light chain) VH: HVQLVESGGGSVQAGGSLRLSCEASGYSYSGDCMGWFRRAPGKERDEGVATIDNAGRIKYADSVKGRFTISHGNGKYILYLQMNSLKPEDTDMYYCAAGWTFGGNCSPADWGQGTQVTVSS"
observed_property = "EC50"
assay_value = 0.26

[[record]]
binder = "anti-PVRIG antibody 39 (antibody, human IgG4 S228P, F234A L235A, V domains shown, no light chain) VH: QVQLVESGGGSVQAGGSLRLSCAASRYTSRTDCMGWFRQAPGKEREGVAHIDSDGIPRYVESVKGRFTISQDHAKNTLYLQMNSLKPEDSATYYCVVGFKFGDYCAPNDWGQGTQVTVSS"
observed_property = "EC50"
assay_value = 0.27


Now look at this entry.
Give the measured EC50 for positive antibody Tab5 (antibody, human IgG4 S228P, kappa, F234A L235A, V domains shown, Variable regions of CPA.7.021 (WO2016134333A1) on human IgG4 (S228P/F234A/L235A/K447A) and human kappa constant regions) VH: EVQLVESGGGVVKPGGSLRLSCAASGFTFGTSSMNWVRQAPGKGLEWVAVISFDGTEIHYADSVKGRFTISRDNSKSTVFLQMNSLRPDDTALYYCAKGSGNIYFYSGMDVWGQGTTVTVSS VL: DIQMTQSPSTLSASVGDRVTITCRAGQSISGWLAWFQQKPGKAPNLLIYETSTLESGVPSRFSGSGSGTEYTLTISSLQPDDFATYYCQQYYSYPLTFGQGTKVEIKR 2.86
